Recorded IC50 for the following molecules
Molecular target: WRN helicase (aa N517-P1238) (Homo sapiens)
Construct: The core helicase motif of the WRN protein (aa N517-P1238) was produced for this assay; His (N); ZZ (N); 3C protease cleavage site (N); virus and BIICs made in SF9)
Experiment: WRN ATPase assay (DNA dependent ATP hydrolysis, ADP-Glo)
Details: 3 hours pre-incubation, 300 micromolar ATP, FLAP26 DNA; geometric mean of at least 2
Please state the figure in µM; there is no need to write the unit.

// worked examples, IC50 included
COC(=O)N1CC=C(c2nc3n(CC(=O)Nc4ccc(S(F)(F)(F)(F)F)cc4)c(C)c(N4CCN(C(C)=O)CC4)c(=O)n3n2)CC1 [Example 156] = 0.2
CC(=O)N1CCN(c2c(C)n(CC(=O)Nc3cc(F)c(Cl)cc3Cl)c3nc(C4=CCOCC4)nn3c2=O)CC1 [Example 97] = 1
CCc1c(N2CCN(C(=O)c3ncc4c(c3O)OCC4)CC2)c(=O)n2nc(C3=CCOCC3)nc2n1CC(=O)Nc1ccc(C(F)(F)F)cc1C [Example 37] = 0.09
CCc1ccc(NC(=O)Cn2c(C)c(N3CCN(C(C)=O)CC3)c(=O)n3nc(C4=CCOCC4)nc23)cc1Cl [Example 30] = 0.1
CC(=O)N(C)Cc1ccc(-c2nc3n(CC(=O)Nc4ccc(C(F)(F)F)cc4)c(C)c(N4CCN(C(C)=O)CC4)c(=O)n3n2)cc1 [Example 70] = 0.07
Cc1c(N2CCN(C(=O)c3cccnc3O)CC2)c(=O)n2nc(C3=CCOCC3)nc2n1CC(=O)Nc1ccc(C(F)(F)F)cc1 [Example 48] = 0.1

Note to self: IC50 of CCOC(=O)C#Cc1nc2n(CC(=O)Nc3ccc(C(F)(F)F)cc3)c(C)c(N3CCN(C(C)=O)CC3)c(=O)n2n1 [Example 116] with WRN helicase (aa N517-P1238) (Homo sapiens) was 0.5

Note to self: IC50 of Cc1c(N2CCN(C(=O)c3ccc(F)c(F)c3O)CC2)c(=O)n2nc(N3CCOCC3)nc2n1CC(=O)Nc1ccc(C(F)(F)F)cc1 [Example 150] with WRN helicase (aa N517-P1238) (Homo sapiens) was 0.09

###

Test system: DLD1-WRN-KO cells
Assay: Proliferation assay DLD1-WRN-KO (CellTiterGlo, off-target effects)
Assay type: cell-based
Conditions: 96 hours, geometric mean of at least 2
Recorded GI50 for the following compounds

// worked examples, GI50 included
CC(=O)N1CCN(c2nc3n(CC(=O)Nc4ccc(Cl)cc4)c(C)c(N4CCN(C(=O)c5n[nH]c(=O)[nH]5)CC4)c(=O)n3n2)CC1 = > 10 µM
CC(=O)N1CCN(c2c(C)n(CC(=O)Nc3ccc(C(F)(F)F)cc3)c3nc(-c4cnc(C)o4)nn3c2=O)CC1 = > 10 µM
CC(=O)N1CCN(c2c(C(C)C)n(CC(=O)Nc3ccc(C(F)(F)F)cc3)c3nc(C4=CCOCC4)nn3c2=O)CC1 = > 10 µM
CC(=O)N1CCN(c2c(C)n(CC(=O)Nc3ccc(S(F)(F)(F)(F)F)cc3)c3nc(C4=CCCCO4)nn3c2=O)CC1 = 7 µM

Recorded GI50 (compound `CCc1c(N2CCN(C(=O)c3ncn(C)c3O)CC2)c(=O)n2nc(C3=CCOCC3)nc2n1CC(=O)Nc1ccc(C(F)(F)F)cc1Cl` ): > 10 µM

Recorded GI50 (compound `CCc1c(N2CCN(C(=O)c3nccc4cccc(O)c34)CC2)c(=O)n2nc(C3=CCOCC3)nc2n1CC(=O)Nc1ccc(C(F)(F)F)cc1C` ): > 10 µM

###

Test system: DLD1-WRN-KO cells
Assay: Proliferation assay DLD1-WRN-KO (CellTiterGlo, off-target effects)
Type: cell-based
Details: 96 hours, geometric mean of at least 2
metric.name: GI50

// worked examples, GI50 included
CCc1c(N2CCN(C(=O)c3ncc4c(c3O)OCC4)CC2)c(=O)n2nc(C3=CCOCC3)nc2n1CC(=O)Nc1ccc(C(F)(F)F)cc1C = > 10 µM
CC(=O)N1CCN(c2c(C)n(CC(=O)Nc3ccc(C(F)(F)F)cc3)c3nc(-c4cccnc4)nn3c2=O)CC1 = > 10 µM

Recorded GI50 (compound `CCc1ccc(NC(=O)Cn2c(C)c(N3CCN(C(C)=O)CC3)c(=O)n3nc(C4=CCOCC4)nc23)cc1Cl` ): > 10 µM

Recorded GI50 (compound `CCc1c(N2CCN(C(=O)c3ccc(F)c(F)c3O)CC2)c(=O)n2nc(C3=CCCCO3)nc2n1CC(=O)Nc1ccc(C(F)(F)F)cc1` ): 4 µM

Recorded GI50 (compound `CC(=O)N1CCN(c2c(C)n(CC(=O)Nc3cc(F)c(C(F)(F)F)cc3C)c3nc(C4=CCOCC4)nn3c2=O)CC1` ): > 10 µM

Recorded GI50 (compound `Cc1nc2ccccc2c(C(=O)N2CCN(c3c(C)n(CC(=O)Nc4ccc(C(F)(F)F)cc4)c4nc(C5=CCOCC5)nn4c3=O)CC2)c1O` ): > 10 µM

###

Target: WRN helicase (aa N517-P1238) (Homo sapiens, UniProt Q14191)
Construct: The core helicase motif of the WRN protein (aa N517-P1238) was produced for this assay; His (N); ZZ (N); 3C protease cleavage site (N); virus and BIICs made in SF9)
Sequence (Q14191 517-1238): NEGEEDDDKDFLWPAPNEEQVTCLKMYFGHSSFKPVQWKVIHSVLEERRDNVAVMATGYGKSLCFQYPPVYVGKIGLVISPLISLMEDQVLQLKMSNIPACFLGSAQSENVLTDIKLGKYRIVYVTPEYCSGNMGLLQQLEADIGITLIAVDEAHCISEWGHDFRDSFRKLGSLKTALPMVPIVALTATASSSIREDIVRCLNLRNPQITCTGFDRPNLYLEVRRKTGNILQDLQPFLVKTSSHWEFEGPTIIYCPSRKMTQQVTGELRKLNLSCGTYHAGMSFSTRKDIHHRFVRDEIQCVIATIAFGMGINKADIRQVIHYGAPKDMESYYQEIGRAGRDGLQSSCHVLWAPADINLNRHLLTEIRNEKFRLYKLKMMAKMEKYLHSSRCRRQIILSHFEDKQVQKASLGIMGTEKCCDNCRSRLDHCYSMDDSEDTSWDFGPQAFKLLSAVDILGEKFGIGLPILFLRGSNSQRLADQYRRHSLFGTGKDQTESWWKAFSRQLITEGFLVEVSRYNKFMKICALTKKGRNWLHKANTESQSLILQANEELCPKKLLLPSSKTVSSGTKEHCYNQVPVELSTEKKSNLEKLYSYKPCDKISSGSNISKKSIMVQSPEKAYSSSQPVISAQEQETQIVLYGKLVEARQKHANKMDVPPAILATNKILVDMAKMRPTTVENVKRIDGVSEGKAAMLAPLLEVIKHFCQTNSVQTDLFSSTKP
Test: WRN ATPase assay (DNA dependent ATP hydrolysis, ADP-Glo)
Details: 3 hours pre-incubation, 300 micromolar ATP, FLAP26 DNA; geometric mean of at least 2
Recorded IC50 for the following compounds
Please state the figure in nM; there is no need to write the unit.

Recorded IC50 (compound CC(=O)N1CCN(c2c(C)n(CC(=O)Nc3ccc(C(F)(F)F)cc3)c3nc(-c4cnc(C)o4)nn3c2=O)CC1 [Example 135] ): 400

Recorded IC50 (compound CCc1c(N2CCN(C(C)=O)CC2)c(=O)n2nc(C3=CCOCC3)nc2n1CC(=O)Nc1ccc(C(F)(F)F)cc1C [Example 58] ): 100

###

Recorded GI50 for the following compounds
Tested on: DLD1-WRN-KO cells
Experiment: Proliferation assay DLD1-WRN-KO (CellTiterGlo, off-target effects)
Format: cell-based
Settings: 96 hours, geometric mean of at least 2

// worked examples, GI50 included
CC(=O)N1CCN(c2c(C)n(CC(=O)Nc3ccc(Cl)cc3)c3nc(-c4ccccc4)nn3c2=O)CC1 [Example 3] = 10 µM
CC(=O)N1CCN(c2c(C)n(CC(=O)Nc3ccc(Cl)cc3)c3nc(C4=CCCCO4)nn3c2=O)CC1 [Example 79] = > 10 µM

Recorded GI50 (compound Cc1c(N2CCN(C(=O)c3c(F)ccc(F)c3O)CC2)c(=O)n2nc(C3=CCOCC3)nc2n1CC(=O)Nc1ccc(C(F)(F)F)cc1 [Example 13] ): > 10 µM

Recorded GI50 (compound CC(=O)N1CCN(c2c(C3CC3)n(CC(=O)Nc3ccc(C(F)(F)F)cc3)c3nc(C4=CCOCC4)nn3c2=O)CC1 [Example 147] ): > 10 µM

###

Target: WRN helicase (aa N517-P1238) (Homo sapiens, UniProt Q14191)
Construct: The core helicase motif of the WRN protein (aa N517-P1238) was produced for this assay; His (N); ZZ (N); 3C protease cleavage site (N); virus and BIICs made in SF9)
Experiment: WRN ATPase assay (DNA dependent ATP hydrolysis, ADP-Glo)
Settings: 3 hours pre-incubation, 300 micromolar ATP, FLAP26 DNA; geometric mean of at least 2
metric.name: IC50 (nM)
Please state the figure in nM; there is no need to write the unit.

Note to self: IC50 of CC(=O)N1CCN(c2c(C)n(CC(=O)Nc3ccc(C(F)(F)F)cc3)c3nc(N4CC5CC5C4)nn3c2=O)CC1 (stereo not drawn) with WRN helicase (aa N517-P1238) (Homo sapiens, UniProt Q14191) was 800

###

Recorded pIC50 for the following compounds
Molecular target: WRN helicase (aa N517-P1238) (Homo sapiens, UniProt Q14191)
Construct: The core helicase motif of the WRN protein (aa N517-P1238) was produced for this assay; His (N); ZZ (N); 3C protease cleavage site (N); made in house; host or cells: Sf21 insect cells (baculovirus; virus and BIICs made in SF9)
Test: WRN ATPase assay (DNA dependent ATP hydrolysis, ADP-Glo)
Format: biochemical
Details: 3 hours pre-incubation, 300 micromolar ATP, FLAP26 DNA; geometric mean of at least 2
Scale explanation: pIC50 corresponds to minus log10 of a concentration expressed in moles per litre.

// worked examples, pIC50 included
CC(=O)N1CCN(c2c(C)n(CC(=O)Nc3ccc(C(F)(F)F)cc3)c3nc(N4CCCCC4)nn3c2=O)CC1 [Example 111] = 6.70
CC(=O)N1CCN(c2c(C)n(CC(=O)Nc3ccc(Cl)c(Cl)c3)c3nc(C4=CCN(C(=O)OC(C)(C)C)CC4)nn3c2=O)CC1 [Example 75] = 6.70
CCc1c(N2CCN(C(C)=O)CC2)c(=O)n2nc(C3=CCCCO3)nc2n1CC(=O)Nc1ccc(C(F)(F)F)cc1 [Example 57] = 7.00
CCc1c(N2CCN(C(=O)c3ccnc(F)c3O)CC2)c(=O)n2nc(C3=CCOCC3)nc2n1CC(=O)Nc1ccc(C(F)(F)F)cc1Cl [Example 42] = 7.15
CCc1c(N2CCN(C(=O)c3ccnc(C)c3O)CC2)c(=O)n2nc(C3=CCOCC3)nc2n1CC(=O)Nc1ccc(C(F)(F)F)cc1Cl [Example 49] = 6.70
CCc1c(N2CCN(C(=O)c3nsnc3O)CC2)c(=O)n2nc(C3=CCOCC3)nc2n1CC(=O)Nc1ccc(C(F)(F)F)cc1Cl [Example 66] = 7.52
CC(=O)N1CCN(c2c(C)n(CC(=O)Nc3ccc(C(F)(F)F)cc3)c3nc(C4=CCN(C(=O)OC(C)(C)C)CC4)nn3c2=O)CC1 [Example 105] = 7.00
CC(=O)N1CCN(c2c(C)n(CC(=O)Nc3ccc(C(F)(F)F)cc3)c3nc(-c4cnn(C(F)F)c4)nn3c2=O)CC1 [Example 128] = 6.10
CC(=O)N1CCN(c2c(C)n(CC(=O)Nc3ccc(C(F)(F)F)cc3)c3nc(N4CCC(N(C)CC(F)F)CC4)nn3c2=O)CC1 [Example 113] = 6.52

Let us examine a further case.
Recorded pIC50 (compound CC(=O)N1CCN(c2nc3n(CC(=O)Nc4ccc(Cl)cc4)c(C)c(N4CCN(C(=O)c5[nH]c(=O)[nH]c(=O)c5N)CC4)c(=O)n3n2)CC1 [Example 10] ): 7.05
